Consider the following sequences and their measured phosphorylation enrichment readings.
Tested on: AncSZ
EXPERIMENT_SUMMARY: phosphorylation enrichment, bacterial display (enrichment ratio); higher = better substrate or ligand; peptides without Tyr show the background

The following sequences have reported results that may help.
Enquiry: What phosphorylation enrichment appears in the records for this sequence with AncSZ? RHNEIYEIKVD [LGR5_Y387]
Return: 1.12

Enquiry: Same for CTTIHYNFTCN [TP53_Y234_M237T_YF]
Return: 0.797

Enquiry: Same for DVFRQYASLRG [GANAB_Y379_T383R]
Return: 0.482

Enquiry: Same for NDQANYLLNTD [ADA_Y290_S291L]
Return: 0.987

Enquiry: Same for VGSIKYLKREW [KCNMA1_Y885_E884K]
Return: 0.68

Enquiry: Same for DPHQQYYIAMD [TBX15_Y159]
Return: 1.05

Enquiry: Same for VVQGIYGFHHF [UFSP2_Y285_YF]
Return: 0.886

Enquiry: Same for MSYDRYMAICH [OR2A5_Y123]
Return: 0.909

Enquiry: Same for PEADKYRLPFA [FGG_Y300_T303P_YF]
Return: 0.988

Enquiry: Same for LTELGYSFVTT [ACTA1_Y200_R198L]
Return: 3.14

***
Enquiry: What phosphorylation enrichment appears in the records for this sequence with AncSZ? GRFCGYKSKHG [EPHA3_Y570]
Return: 0.469

Enquiry: Same for KWRGQYDVANK [BTK_Y425_I429N]
Return: 0.533

Enquiry: Same for PADCRYYTFPQ [GAMT_Y222_A224T]
Return: 4.04

Enquiry: Same for SVTCTYSPAHN [TP53_Y126_L130H]
Return: 1.37

Enquiry: Same for KPFRVYCDMNT [FGB_Y269_YF]
Return: 1.22

Enquiry: Same for SFPSTYRYERG [INPPL1_Y661_P659S]
Return: 0.484

Enquiry: Same for GKAFIYASHIV [ZNF573_Y229]
Return: 0.802

---

TESTED_TARGET: c-Src SH2;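 also: peptide library displayed on the E. coli surface as eCPX fusions, selected cells deep-sequenced, score is each peptide's frequency after selection divided by its frequency in the input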
EXPERIMENT_SUMMARY: SH2 binding enrichment of the phosphorylated peptide, bacterial display (enrichment ratio); higher = better substrate or ligand; peptides without Tyr show the background
PROPERTY_NAME: SH2 binding enrichment

The following sequences have reported results that may help.
Enquiry: Can you share its SH2 binding enrichment? I mean this sequence: INITIYGKTFR [EFHC1_Y177]
Return: 0.5

Enquiry: Same for TRNRDYDDIDD [TTYH2_Y424]
Return: 0.593

Enquiry: Same for LNAGAYSKVVQ [PPT1_Y172]
Return: 1.71

Enquiry: Same for DSDTDYGSGFP [RNASEH2A_Y206_L202S_YF]
Return: 0.494

Enquiry: Same for EFEGLYQEGGG [TMEM159_Y159]
Return: 0.607

Proceed to the following item.
Enquiry: Can you share its SH2 binding enrichment? I mean this sequence: LAGRFYALRSM [CKB_Y174_K177R_YF]
Return: 1.2

---

Test system: AncSZ
EXPERIMENT_SUMMARY: phosphorylation enrichment, bacterial display (enrichment ratio); higher = better substrate or ligand; peptides without Tyr show the background
Binary call on phosphorylation enrichment: Criterion met from 1 upward, Criterion not met beneath that.

Field: example entries. Status: answers known.
Enquiry: Given RNGDRYFKGIV [DCX_Y64] , state whether its phosphorylation enrichment is at least 1.
Return: Criterion not met

Enquiry: Same for MPAVTYTLAMR [MEGF10_Y895_P897L]
Return: Criterion met

***
Enquiry: Given HKLSFCEFDFE [BTK_Y40_Y40C_YF] , state whether its phosphorylation enrichment is at least 1.
Return: Criterion met

Enquiry: Same for SVVVPYEPPKV [TP53_Y220_E224K]
Return: Criterion not met

---

Consider the following sequences and their measured phosphorylation enrichment readings.
TESTED_TARGET: Fyn (UniProt P06241)
Sequence (P06241 whole entry, looked up): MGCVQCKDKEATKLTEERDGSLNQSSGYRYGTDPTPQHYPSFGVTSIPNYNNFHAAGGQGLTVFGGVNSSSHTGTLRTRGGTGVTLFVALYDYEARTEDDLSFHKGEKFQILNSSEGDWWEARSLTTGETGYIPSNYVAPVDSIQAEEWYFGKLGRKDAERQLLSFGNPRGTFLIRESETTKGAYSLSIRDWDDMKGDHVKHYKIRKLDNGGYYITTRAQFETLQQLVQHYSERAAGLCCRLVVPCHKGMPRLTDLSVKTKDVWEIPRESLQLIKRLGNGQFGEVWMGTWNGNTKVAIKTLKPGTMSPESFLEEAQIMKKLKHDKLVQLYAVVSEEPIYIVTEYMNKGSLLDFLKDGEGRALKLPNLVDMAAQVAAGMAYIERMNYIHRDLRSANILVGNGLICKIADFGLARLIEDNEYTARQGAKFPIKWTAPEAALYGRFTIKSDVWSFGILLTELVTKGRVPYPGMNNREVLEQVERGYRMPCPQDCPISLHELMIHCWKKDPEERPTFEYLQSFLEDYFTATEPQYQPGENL
EXPERIMENT_SUMMARY: phosphorylation enrichment, bacterial display (enrichment ratio); higher = better substrate or ligand; peptides without Tyr show the background

Enquiry: What phosphorylation enrichment appears in the records for this sequence with Fyn (UniProt P06241)? SLGKGYYDGGC [MC4R_Y35_S36Y]
Return: 0.611

Enquiry: Same for SKNSKYNAGST [PSEN1_Y315_E318G]
Return: 0.59

Enquiry: Same for PSPMPCASCQM [FOXL2_Y215_Y215C]
Return: 0.603

Proceed to the following item.
Enquiry: What phosphorylation enrichment appears in the records for this sequence with Fyn (UniProt P06241)? SVTCTYSPVLN [TP53_Y126_A129V]
Return: 0.613

---

TESTED_TARGET: FGFR1 (UniProt P11362)
Sequence (P11362 whole entry, looked up): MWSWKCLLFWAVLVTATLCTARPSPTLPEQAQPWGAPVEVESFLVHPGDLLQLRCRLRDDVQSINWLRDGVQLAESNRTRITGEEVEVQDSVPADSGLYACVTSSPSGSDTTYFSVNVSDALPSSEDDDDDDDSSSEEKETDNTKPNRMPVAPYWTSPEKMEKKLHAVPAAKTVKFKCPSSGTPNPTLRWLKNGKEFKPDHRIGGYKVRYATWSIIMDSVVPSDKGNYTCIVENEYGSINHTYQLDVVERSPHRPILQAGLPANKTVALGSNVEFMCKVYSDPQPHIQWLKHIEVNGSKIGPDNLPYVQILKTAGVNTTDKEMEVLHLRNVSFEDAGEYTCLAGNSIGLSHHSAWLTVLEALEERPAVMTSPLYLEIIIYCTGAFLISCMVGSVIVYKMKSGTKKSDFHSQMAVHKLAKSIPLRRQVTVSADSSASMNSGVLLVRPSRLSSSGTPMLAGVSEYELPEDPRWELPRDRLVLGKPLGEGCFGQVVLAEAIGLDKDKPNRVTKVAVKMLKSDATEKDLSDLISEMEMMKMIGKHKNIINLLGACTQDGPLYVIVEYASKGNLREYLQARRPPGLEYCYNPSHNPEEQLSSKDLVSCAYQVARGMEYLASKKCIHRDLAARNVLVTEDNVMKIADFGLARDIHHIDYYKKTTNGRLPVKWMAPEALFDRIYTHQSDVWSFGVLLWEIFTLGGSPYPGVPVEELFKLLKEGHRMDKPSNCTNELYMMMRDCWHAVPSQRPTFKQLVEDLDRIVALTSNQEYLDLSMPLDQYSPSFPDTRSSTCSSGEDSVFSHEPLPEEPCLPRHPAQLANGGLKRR
EXPERIMENT_SUMMARY: phosphorylation enrichment, bacterial display (enrichment ratio); higher = better substrate or ligand; peptides without Tyr show the background
Binary call on phosphorylation enrichment: 1 from 0.5 upward, 0 beneath that.

Field: example entries. Status: answers known.
Enquiry: Given TVLGEYASPKG [CYP24A1_Y407_L409S] , state whether its phosphorylation enrichment is at least 0.5.
Return: 0

Enquiry: Same for EFKKKYSDADI [CKAP5_Y1860_YF]
Return: 0

Enquiry: Same for LTGIAYSLPHW [SLC22A14_Y291]
Return: 1

Enquiry: Same for PEVRRHVLPLN [RPE65_Y368_Y368H]
Return: 1

***
Enquiry: Given QAINEYEKWLE [MAP9_Y603] , state whether its phosphorylation enrichment is at least 0.5.
Return: 1

Enquiry: Same for YSQNICIQNRN [PKP2_Y631_Y631C]
Return: 1

Enquiry: Same for LLTALYFISWG [KCNH2_Y780_R784W]
Return: 1

Enquiry: Same for RGFRVYFTPDS [PTPRF_Y450_YF]
Return: 1

Enquiry: Same for GGTPLYRDRQG [AGXT_Y194_M195R]
Return: 0

Enquiry: Same for QGIPWYHSQSP [FOXF1_Y331_R330W]
Return: 1

Enquiry: Same for PADCRYFAFPQ [GAMT_Y222_YF]
Return: 1

---

Consider the following sequences and their measured phosphorylation enrichment readings.
TESTED_TARGET: EPHB2 (UniProt P29323)
Sequence (P29323 whole entry, looked up): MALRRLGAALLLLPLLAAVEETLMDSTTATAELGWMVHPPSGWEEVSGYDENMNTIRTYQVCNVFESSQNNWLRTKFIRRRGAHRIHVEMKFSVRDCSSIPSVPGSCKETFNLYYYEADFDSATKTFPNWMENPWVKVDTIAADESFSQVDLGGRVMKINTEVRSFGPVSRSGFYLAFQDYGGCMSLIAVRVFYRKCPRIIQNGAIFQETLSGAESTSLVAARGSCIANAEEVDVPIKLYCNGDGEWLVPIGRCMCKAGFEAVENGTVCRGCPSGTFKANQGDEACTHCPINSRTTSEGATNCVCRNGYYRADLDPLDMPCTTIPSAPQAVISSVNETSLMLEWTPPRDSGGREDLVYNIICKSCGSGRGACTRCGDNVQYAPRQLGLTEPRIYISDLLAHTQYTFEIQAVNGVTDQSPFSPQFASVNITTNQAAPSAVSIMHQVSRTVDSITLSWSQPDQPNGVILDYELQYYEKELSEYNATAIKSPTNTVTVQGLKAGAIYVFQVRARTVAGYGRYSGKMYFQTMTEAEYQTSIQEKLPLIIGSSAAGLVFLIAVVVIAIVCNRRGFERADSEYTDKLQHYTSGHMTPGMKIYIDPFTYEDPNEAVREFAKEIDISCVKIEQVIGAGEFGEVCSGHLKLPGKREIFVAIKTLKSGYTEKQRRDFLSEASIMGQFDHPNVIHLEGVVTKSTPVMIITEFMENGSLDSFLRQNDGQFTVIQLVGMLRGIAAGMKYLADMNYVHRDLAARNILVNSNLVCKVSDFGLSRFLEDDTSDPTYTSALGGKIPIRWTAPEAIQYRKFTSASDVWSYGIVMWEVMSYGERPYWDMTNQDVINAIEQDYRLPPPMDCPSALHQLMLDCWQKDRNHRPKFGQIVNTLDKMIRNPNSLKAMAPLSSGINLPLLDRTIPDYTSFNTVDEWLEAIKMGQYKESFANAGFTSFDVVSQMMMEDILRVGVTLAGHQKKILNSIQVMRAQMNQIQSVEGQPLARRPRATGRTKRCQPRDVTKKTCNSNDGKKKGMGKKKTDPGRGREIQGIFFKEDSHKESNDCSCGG
EXPERIMENT_SUMMARY: phosphorylation enrichment, bacterial display (enrichment ratio); higher = better substrate or ligand; peptides without Tyr show the background
Answer with a number only.

The following sequences have reported results that may help.
Enquiry: Can you share its phosphorylation enrichment? I mean this sequence: KGSLPYSLILD [PKD1L2_Y406_N407S]
Return: 0.675

Enquiry: Same for RSACTYLAPHL [PLK3_Y615_S618P]
Return: 1.25

Enquiry: Same for RSAGKYDVFLI [MECP2_Y120_YF]
Return: 0.563

Enquiry: Same for FPKARYHWLVL [APTX_Y214_YF]
Return: 0.457

Enquiry: Same for SLNEGYAKDFD [FBP1_Y216_R218K]
Return: 0.6

***
Enquiry: Can you share its phosphorylation enrichment? I mean this sequence: EALDFYGEVRI [PTEN_Y155_T160I]
Return: 0.614

Enquiry: Same for VIIVLYFSLWK [SLC6A2_Y249_V245I]
Return: 0.371

Enquiry: Same for DLDTEYGSGFP [RNASEH2A_Y206_D205E_YF]
Return: 0.642

Enquiry: Same for YISLIYTNYEV [GSTP1_Y109_A114V]
Return: 1.83

Enquiry: Same for TVLGEYASPKG [CYP24A1_Y407_L409S]
Return: 0.612

Enquiry: Same for WASQRYGRELR [BAD_Y110_A107S]
Return: 0.538

Enquiry: Same for DMLFQYLKQIE [RPAP3_Y569_YF]
Return: 0.588

Enquiry: Same for AVRVFYRKCPR [EPHB2_Y194]
Return: 0.463

Enquiry: Same for GGTPLYRDRQG [AGXT_Y194_M195R]
Return: 0.435

Enquiry: Same for AEDKPYAELWM [MPI_Y46]
Return: 0.729

Enquiry: Same for YLAAIYPTVGQ [NF1_Y2508_T2507I]
Return: 0.514

Enquiry: Same for QRPGPYDRPGA [HNRNPH2_Y210]
Return: 0.466

Enquiry: Same for KDKLPYLFDDP [GPX2_Y125_P126L_YF]
Return: 0.515

Enquiry: Same for TGEDWYVLVRV [SF3B3_Y904_G908R]
Return: 0.64

Enquiry: Same for AACQHYGVHTC [NR4A2_Y275_R278H]
Return: 0.471

Enquiry: Same for HVEAVYIDIAD [PITPNA_Y140]
Return: 1.27

Enquiry: Same for ALKKPYGVLFK [RPF2_Y59_YF]
Return: 0.502

Enquiry: Same for DRLASYQDKVR [KRT12_Y139_L140Q]
Return: 0.461

Enquiry: Same for TFINKYQGKLF [HGD_Y249_V245F]
Return: 0.346
